Quick reference for viability, T/C among some compounds
# Test system: SUM149PT spheroids with HUVEC/MSC, viability
# Procedure Details: Anticancer human tumor SUM149PT cell line growth inhibition [GQUAD];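 note: spheroids exposed to drugs for seven days before readout; percent viability relative to DMSO vehicle control taken as 100%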
# Run Parameters: second compound 0.1 µM; first compound 3.16 µM; stronger effect = lower value
Just the number in %, nothing appended.

Examples with answers:
1) C=CC(=O)N1CCN(c2nc(=O)n(-c3c(C)ccnc3C(C)C)c3nc(-c4c(O)cccc4F)c(F)cc23)C(C)C1 (stereo not given) + Cc1[nH]c2ccc(F)cc2c1-c1nc2c3cccnc3c3ncccc3c2[nH]1 ... 124
2) C#Cc1c(F)ccc2cc(O)cc(-c3ncc4c(N5CC6CCC(C5)N6)nc(OCC56CCCN5CC(F)C6)nc4c3F)c12 (stereo not given) + Cc1[nH]c2ccc(F)cc2c1-c1nc2c3cccnc3c3ncccc3c2[nH]1 ... 54.8
3) COc1ccc([C@@H](O)c2cc(-c3ncnc4cc(N5CCOCC5)ccc34)c(F)cc2Cl)nn1 + Cc1[nH]c2ccc(F)cc2c1-c1nc2c3cccnc3c3ncccc3c2[nH]1 ... 29.4
4) COc1cccc2c1C(=O)c1c(O)c3c(c(O)c1C2=O)CC(O)(C(=O)CO)CC3OC1CC(N)C(O)C(C)O1 (stereo not given) + Cc1[nH]c2ccc(F)cc2c1-c1nc2c3cccnc3c3ncccc3c2[nH]1 ... 2.57

Shifting focus to the compound that follows.
[Q] Given COc1cccc2c1C(=O)c1c(O)c3c(c(O)c1C2=O)CC(O)(C(=O)CO)CC3OC1CC(N)C(O)C(C)O1 (stereo not given) + Cc1cnc(CNC(=O)c2c(=O)c3ccc(N4CCCN(C)CC4)nc3n3c2sc2ccccc23)cn1 , respond with its viability, T/C.
[A] 1.96
